B1: STX11 (parent)
chain: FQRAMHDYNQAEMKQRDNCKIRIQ

variants of: B1; assay: protein stability index of a GFP-peptide fusion (GPS, HEK-293T) (PSI 1-6); higher = more stable; details: c terminus: a fixed tail appended;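 note: lentivirally expressed fusions sorted by FACS into six bins by GFP to DsRed ratio, PSI derived from sequencing read proportions per bin multiplied by bin number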
experimental_endpoint: protein stability index
Field format: numeric only.

Solved cases below.
D17Q 2.63
I21S 3.5
R22T 2.54
M13V 2.52
R16A 3.04

Item `K20I` has what recorded protein stability index?
1.3

Look up protein stability index: `D7H`
2.3

Name the recorded protein stability index for `Y8M` .
3.15

Value source: the supplement of paper PMC10567573
